Recorded clearance for the following compounds
# PROTOCOL_TEXT: Clearance in Sprague-Dawley rat at 1 mg/kg, iv
# Type: ADME, organism-based
# Set-up: dose 1 mg/kg, route intravenous
# CONDITION_PARAMETERS: in vivo
Give a bare numeral; the unit mL/min/kg is implied.

SMILES_RECORD: CCOC(=O)C1=C(Nc2ccc3ccccc3c2)OCC1=O
OBS_VALUE: 84.7

Now look at this one.
QUERY: // query clearance value for entry CCOC(=O)C1=C(Nc2ccc3ccccc3c2)SCC1=O
RESULT: 129

----------
# PROTOCOL_TEXT: Half life in Sprague-Dawley rat at 10 mg/kg, po
# Assay type: ADME, organism-based
# Design: dose 10 mg/kg, route oral
# CONDITION_PARAMETERS: in vivo
Recorded half-life for the following molecules
Give a bare numeral; the unit h is implied.

SMILES_RECORD: CCOC(=O)C1=C(Nc2ccc3ccccc3c2)OCC1=O
OBS_VALUE: 0.75

Now look at this one.
QUERY: // query half-life value for entry CCOC(=O)C1=C(Nc2ccc3ccccc3c2)SCC1=O
RESULT: 2.56

----------
# System: Plasmodium falciparum
# PROTOCOL_TEXT: microbe, parasite or virus in culture
# CONDITION_PARAMETERS: 3D7, 72 h
# Description: Antiplasmodial activity against chloroquine-sensitive Plasmodium falciparum 3D7 infected in erythrocytes assessed as parasite growth inhibition after 72 hrs by SYBR green 1 dye-based fluorometric analysis
Please respond with TRUE when measured IC50 is strictly beneath 900 nM, and with FALSE in all other cases.

# count of solved cases: 5
SMILES_RECORD: CCOC(=O)C1=C(Nc2ccc(Cl)c(C(F)(F)F)c2)SCC1=O
CAT: FALSE

SMILES_RECORD: O=C1CSC(Nc2ccc3ccccc3c2)=C1C(=O)NCC1CC1
CAT: FALSE

SMILES_RECORD: CCOC(=O)C1=C(Nc2ccc3ccccc3c2)SCC1=O
CAT: TRUE

SMILES_RECORD: CCCCNC(=O)C1=C(Nc2ccc3ccccc3c2)SCC1=O
CAT: FALSE

SMILES_RECORD: CCOC(=O)C1=C(Nc2ccc(C(F)(F)F)cc2)SCC1=O
CAT: FALSE

QUERY: Criterion: IC50 strictly below 900 nM. Is it met by CCOC(=O)C1=C(Nc2ccc3cc4ccccc4cc3c2)SCC1=O ?
RESULT: TRUE

QUERY: Criterion: IC50 strictly below 900 nM. Is it met by CCCCOC(=O)C1=C(Nc2ccc(C)c(C)c2)SCC1=O ?
RESULT: TRUE

QUERY: Criterion: IC50 strictly below 900 nM. Is it met by Cc1ccc(NC2=C(C(=O)NC3CC3)C(=O)CS2)cc1C ?
RESULT: FALSE

QUERY: Criterion: IC50 strictly below 900 nM. Is it met by CCOC(=O)C1=C(Nc2cccc(C(F)(F)F)c2)SCC1=O ?
RESULT: FALSE

QUERY: Criterion: IC50 strictly below 900 nM. Is it met by CCOC(=O)C1=C(Nc2ccc(S(F)(F)(F)(F)F)cc2)OCC1=O ?
RESULT: TRUE

----------
# Test system: Plasmodium falciparum
# PROTOCOL_TEXT: microbe, parasite or virus in culture
# CONDITION_PARAMETERS: Dd2, 72 h
# Description: Antiplasmodial activity against chloroquine-resistant Plasmodium falciparum Dd2 infected in erythrocytes assessed as parasite growth inhibition after 72 hrs by SYBR green 1 dye-based fluorometric analysis
REPORTED_METRIC: pIC50
In plain terms, pIC50 is the concentration in mol/L turned into minus its base-10 logarithm.

Completed entries (count: 8):
SMILES_RECORD: CCNC(=O)C1=C(Nc2ccc3ccccc3c2)SCC1=O
OBS_VALUE: 5.07
//
SMILES_RECORD: CCOC(=O)C1=C(Nc2ccc3c(c2)CCC3)OCC1=O
OBS_VALUE: 6.43
//
SMILES_RECORD: CCCCOC(=O)C1=C(Nc2ccc3ccccc3c2)SCC1=O
OBS_VALUE: 5.28
//
SMILES_RECORD: CCOC(=O)C1=C(Nc2ccc3c(c2)CCCC3)OCC1=O
OBS_VALUE: 7.12
//
SMILES_RECORD: COC(=O)C1=C(Nc2ccc3ccccc3c2)SCC1=O
OBS_VALUE: 6.40
//
SMILES_RECORD: CCOC(=O)C1=C(Nc2ccc(C)c(C)c2)SCC1=O
OBS_VALUE: 5.88
//
SMILES_RECORD: O=C1CSC(Nc2ccc3ccccc3c2)=C1C(=O)NC1CC1
OBS_VALUE: 5.10
//
SMILES_RECORD: CCOC(=O)C1=C(Nc2ccc3c(c2)CCCC3)SCC1=O
OBS_VALUE: 6.50

QUERY: // query pIC50 value for entry CCOC(=O)C1=C(Nc2ccc3c(c2)CCC3)SCC1=O
RESULT: 5.80

QUERY: // query pIC50 value for entry CCOC(=O)C1=C(Nc2ccc(S(F)(F)(F)(F)F)cc2)SCC1=O
RESULT: 6.16

QUERY: // query pIC50 value for entry CCOC(=O)C1=C(Nc2cc(Cl)cc(Cl)c2)SCC1=O
RESULT: 5.22

QUERY: // query pIC50 value for entry CCOC(=O)C1=C(Nc2cccc(C(F)(F)F)c2)SCC1=O
RESULT: 4.87

QUERY: // query pIC50 value for entry CCOC(=O)C1=C(Nc2ccc(C(F)(F)F)cc2)SCC1=O
RESULT: 5.98

----------
Recorded pIC50 for the following molecules
# TARGET_OR_SYSTEM: Dihydroorotate dehydrogenase (quinone), mitochondrial (Homo sapiens, UniProt Q02127)
# Sequence (Q02127 whole entry): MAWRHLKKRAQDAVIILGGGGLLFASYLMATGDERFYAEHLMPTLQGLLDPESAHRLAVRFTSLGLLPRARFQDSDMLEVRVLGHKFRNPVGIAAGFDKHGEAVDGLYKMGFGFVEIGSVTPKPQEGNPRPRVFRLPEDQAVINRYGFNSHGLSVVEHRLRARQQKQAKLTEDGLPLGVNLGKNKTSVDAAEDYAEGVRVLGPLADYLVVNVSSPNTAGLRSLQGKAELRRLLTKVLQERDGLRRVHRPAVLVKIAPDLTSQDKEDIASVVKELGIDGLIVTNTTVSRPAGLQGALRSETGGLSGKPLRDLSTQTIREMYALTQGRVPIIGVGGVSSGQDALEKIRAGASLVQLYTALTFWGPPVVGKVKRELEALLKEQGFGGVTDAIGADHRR
# PROTOCOL_TEXT: Inhibition of N-terminal His10-tagged human DHODH (Met30 to Arg396) expressed in Escherichia coli BL21 (DE3) using dihydroorotate as substrate measured every 30 secs for 6 mins by DCIP dye-based assay
pIC50: −log10 of the molar value.

Completed entries (count: 5):
SMILES_RECORD: CCOC(=O)C1=C(Nc2ccc(C)c(C)c2)OCC1=O
OBS_VALUE: < 4.30
//
SMILES_RECORD: CCOC(=O)C1=C(Nc2ccc(S(F)(F)(F)(F)F)cc2)SCC1=O
OBS_VALUE: < 4.30
//
SMILES_RECORD: COC(=O)C1=C(Nc2ccc3ccccc3c2)SCC1=O
OBS_VALUE: < 4.30
//
SMILES_RECORD: CCCNC(=O)C1=C(Nc2ccc3ccccc3c2)SCC1=O
OBS_VALUE: < 4.30
//
SMILES_RECORD: CCOC(=O)C1=C(Nc2ccc3c(c2)c2ccccc2n3CC)SCC1=O
OBS_VALUE: < 4.30

QUERY: // query pIC50 value for entry CCCOC(=O)C1=C(Nc2ccc3ccccc3c2)SCC1=O
RESULT: < 4.30

QUERY: // query pIC50 value for entry Cc1ccc(NC2=C(C(=O)O)C(=O)CS2)cc1C
RESULT: < 4.30

QUERY: // query pIC50 value for entry CCOC(=O)C1=C(Nc2ccc3ccccc3c2)SCC1=O
RESULT: < 4.30

QUERY: // query pIC50 value for entry CCOC(=O)C1=C(Nc2ccc3c(c2)CCC3)SCC1=O
RESULT: < 4.30

QUERY: // query pIC50 value for entry CCCOC(=O)C1=C(Nc2ccc(C)c(C)c2)SCC1=O
RESULT: 4.93

QUERY: // query pIC50 value for entry Cc1ccc(NC2=C(C(=O)NCC3CC3)C(=O)CS2)cc1C
RESULT: 5.74

----------
# TARGET_OR_SYSTEM: Dihydroorotate dehydrogenase (Plasmodium falciparum)
# Sequence (Q54A96 whole entry): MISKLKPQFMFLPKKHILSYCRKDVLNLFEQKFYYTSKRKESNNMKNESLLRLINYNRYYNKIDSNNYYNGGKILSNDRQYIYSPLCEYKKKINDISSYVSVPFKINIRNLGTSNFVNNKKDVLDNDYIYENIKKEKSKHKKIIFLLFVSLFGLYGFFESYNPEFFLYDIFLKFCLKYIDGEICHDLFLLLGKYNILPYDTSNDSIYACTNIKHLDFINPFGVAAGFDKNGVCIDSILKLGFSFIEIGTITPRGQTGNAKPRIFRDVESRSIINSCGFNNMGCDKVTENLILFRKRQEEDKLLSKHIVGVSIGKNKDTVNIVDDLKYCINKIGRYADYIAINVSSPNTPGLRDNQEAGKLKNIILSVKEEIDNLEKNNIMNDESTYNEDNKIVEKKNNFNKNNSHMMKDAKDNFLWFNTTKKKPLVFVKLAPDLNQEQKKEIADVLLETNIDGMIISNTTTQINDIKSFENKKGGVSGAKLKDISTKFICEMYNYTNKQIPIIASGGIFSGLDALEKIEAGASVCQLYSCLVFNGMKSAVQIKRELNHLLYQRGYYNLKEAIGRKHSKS
Please respond with y when measured IC50 is strictly beneath 700 nM, and with n in all other cases.

# count of solved cases: 6
SMILES_RECORD: CCOC(=O)C1=C(Nc2ccc3c(c2)c2ccccc2n3CC)SCC1=O
CAT: y

SMILES_RECORD: CCOC(=O)C1=C(Nc2ccc(S(F)(F)(F)(F)F)cc2)SCC1=O
CAT: y

SMILES_RECORD: O=C1CSC(Nc2ccc3ccccc3c2)=C1C(=O)NCC1CC1
CAT: n

SMILES_RECORD: CCCOC(=O)C1=C(Nc2ccc3ccccc3c2)SCC1=O
CAT: n

SMILES_RECORD: CCOC(=O)C1=C(Nc2cccc(C(F)(F)F)c2)SCC1=O
CAT: n

SMILES_RECORD: CCOC(=O)C1=C(Nc2ccc3c(c2)CCCC3)OCC1=O
CAT: y

QUERY: Criterion: IC50 strictly below 700 nM. Is it met by O=C1CSC(Nc2ccc3ccccc3c2)=C1C(=O)NC1CC1 ?
RESULT: n

QUERY: Criterion: IC50 strictly below 700 nM. Is it met by CCCCNC(=O)C1=C(Nc2ccc(C)c(C)c2)SCC1=O ?
RESULT: n

QUERY: Criterion: IC50 strictly below 700 nM. Is it met by Cc1ccc(NC2=CC(=O)CS2)cc1C ?
RESULT: n

QUERY: Criterion: IC50 strictly below 700 nM. Is it met by CCOC(=O)C1=C(Nc2ccc(C)c(C)c2)SCC1=O ?
RESULT: y

QUERY: Criterion: IC50 strictly below 700 nM. Is it met by COC(=O)C1=C(Nc2ccc(C)c(C)c2)SCC1=O ?
RESULT: n
